TARGET: CD28 (Homo sapiens, UniProt P10747)
ASSAY OVERVIEW: Flow binding to Jurkat/IL2 reporter cells (CD28)
Parameters: host or cells: Jurkat cells expressing an IL-2-luciferase reporter
CONDITIONS: Table E10; 33.3 nM; relative to CD80 WT IgV-Fc
READOUT NAME: CD28 Fold change to WT CD80
Give only the figure.

MOLECULE	ASSAY VALUE
E35D/M43I/D46E/A71G/L85M (protein) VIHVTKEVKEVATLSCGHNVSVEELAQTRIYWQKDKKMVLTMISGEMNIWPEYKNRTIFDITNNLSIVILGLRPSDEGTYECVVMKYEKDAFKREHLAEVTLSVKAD	3.0

Attention now shifts to the item below.
Challenge: # lookup: CD28 Fold change to WT CD80 of H18Y/E35D/M47L/A71G/A91S (protein) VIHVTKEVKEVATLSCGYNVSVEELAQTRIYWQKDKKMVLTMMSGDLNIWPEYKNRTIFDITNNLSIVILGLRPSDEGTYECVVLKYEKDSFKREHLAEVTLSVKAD
Response given: 8.0
